assay: Stability in human liver microsomes assessed as compound remaining after 60 mins; type: ADME, Microsome; conditions: read-out: Stability
Response field label: string, one of 1 (yes) (remaining at 1 h strictly below 80%) or 0 (no).

{"Compound": "Cc1ccc(NC(=O)CC(CCC(=O)N(C)C)c2nnc(CCCC(C)C)n2C2CC2)c(C)c1 (racemic)", "Discrete label": "1 (yes)"}
{"Compound": "CC(C)(C)C(F)(F)c1cc(-c2onc([C@@H](CCC(=O)O)CC(=O)Nc3ccc(F)cc3Cl)c2C2CC2)no1", "Discrete label": "0 (no)"}
{"Compound": "Cc1ccc(NC(=O)C[C@H](CCC(=O)O)c2noc(-c3cc(CC(C)(C)C)on3)c2C2CC2)c(Cl)c1", "Discrete label": "0 (no)"}
{"Compound": "Cc1ccc(NC(=O)C[C@H](CCC(=O)[O-])c2noc(-c3ncc(CC(C)C)o3)c2C2CC2)c(Cl)c1.[Na+]", "Discrete label": "1 (yes)"}
{"Compound": "Cc1ccc(NC(=O)CC(CCO)c2nnc(CCCC(C)C)n2C2CC2)c(C)c1 (racemic)", "Discrete label": "1 (yes)"}
{"Compound": "Cc1ccc(NC(=O)C[C@H](CCC(=O)[O-])c2noc(-c3cnc(CC(C)C)s3)c2C2CC2)c(Cl)c1.[Na+]", "Discrete label": "1 (yes)"}
{"Compound": "CC(C)(C)Cc1cc(-c2onc([C@@H](CCC(=O)[O-])CC(=O)Nc3ccc(Cl)cc3Cl)c2C2CC2)no1.[Na+]", "Discrete label": "0 (no)"}
{"Compound": "Cc1ccc(NC(=O)CC(CCC(=O)O)c2nnc(CCCC(C)C)n2C2CC2)c(C)c1 (racemic)", "Discrete label": "0 (no)"}
{"Compound": "Cc1ccc(NC(=O)CC(CCN)c2nnc(CCCC(C)C)n2C2CC2)c(C)c1 (racemic)", "Discrete label": "0 (no)"}
{"Compound": "CC(=O)NCCC(CC(=O)Nc1ccc(C)cc1C)c1nnc(CCCC(C)C)n1C1CC1 (racemic)", "Discrete label": "1 (yes)"}

----------
target: Peroxisome proliferator-activated receptor delta (Homo sapiens, UniProt Q03181); experiment: Inhibition of GAL4-fused human PPARdelta transcriptional activity expressed in CHOK1 cells after 2 days by luciferase reporter gene assay
Sequence (Q03181 whole entry, the tested form may be a part): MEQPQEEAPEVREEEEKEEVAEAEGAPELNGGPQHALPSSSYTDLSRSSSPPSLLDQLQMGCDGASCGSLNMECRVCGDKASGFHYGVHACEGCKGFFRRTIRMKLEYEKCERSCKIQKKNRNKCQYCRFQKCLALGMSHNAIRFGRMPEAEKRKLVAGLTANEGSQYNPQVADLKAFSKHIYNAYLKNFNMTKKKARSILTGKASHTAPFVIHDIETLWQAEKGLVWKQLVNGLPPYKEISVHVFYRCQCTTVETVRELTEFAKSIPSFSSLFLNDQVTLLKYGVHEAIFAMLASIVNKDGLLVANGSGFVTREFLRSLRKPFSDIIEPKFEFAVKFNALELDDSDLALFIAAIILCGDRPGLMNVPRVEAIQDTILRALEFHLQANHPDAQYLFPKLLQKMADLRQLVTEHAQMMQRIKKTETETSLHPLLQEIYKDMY

{"Structure notation": "CC(C)(C)Cc1cc(-c2onc([C@@H](CCC(=O)[O-])CC(=O)Nc3ccc(Cl)cc3Cl)c2C2CC2)no1.[Na+]", "EC50": "> 20 µM"}

----------
assay: Oral bioavailability in CD(SD) rat at 3 mg/kg; type: ADME, organism-based; conditions: in vivo

{"Structure notation": "CC(C)(C)Cc1cc(-c2onc([C@@H](CCC(=O)[O-])CC(=O)Nc3ccc(Cl)cc3Cl)c2C2CC2)no1.[Na+]", "bioavailability [%]": 72}

----------
target: Cytochrome P450 2C19 (Homo sapiens); assay: Time-dependent inhibition of human CYP2C19
Sequence (P33261 whole entry): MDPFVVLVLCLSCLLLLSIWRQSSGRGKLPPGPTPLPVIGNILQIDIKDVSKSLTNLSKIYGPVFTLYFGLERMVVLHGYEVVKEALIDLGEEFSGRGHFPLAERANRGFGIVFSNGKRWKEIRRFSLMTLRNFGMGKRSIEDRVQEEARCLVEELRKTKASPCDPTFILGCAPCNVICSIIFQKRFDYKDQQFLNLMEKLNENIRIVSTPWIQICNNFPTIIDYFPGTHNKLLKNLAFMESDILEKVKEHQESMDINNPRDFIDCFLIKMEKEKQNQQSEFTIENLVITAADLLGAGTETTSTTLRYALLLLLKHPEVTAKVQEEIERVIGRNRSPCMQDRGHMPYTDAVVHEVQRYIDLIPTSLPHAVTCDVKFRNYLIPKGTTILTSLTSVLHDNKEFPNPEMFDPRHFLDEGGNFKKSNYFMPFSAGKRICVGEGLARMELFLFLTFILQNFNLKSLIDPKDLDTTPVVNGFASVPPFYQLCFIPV

{"Structure notation": "CC(C)(C)Cc1cc(-c2onc([C@@H](CCC(=O)[O-])CC(=O)Nc3ccc(Cl)cc3Cl)c2C2CC2)no1.[Na+]", "Target or test system": "Cytochrome P450 2C19 (Homo sapiens)", "IC50": "> 50 µM"}

----------
assay: Apparent permeability in human Caco2 cells; assay type: ADME, cell-based; conditions: Caco-2
Experimental endpoint: Papp

{"Compound": "CNC(=O)CCC(CC(=O)Nc1ccc(C)cc1C)c1nnc(CCCC(C)C)n1C1CC1 (racemic)", "Reading": "1.5 ×10⁻⁶ cm/s"}
{"Compound": "Cc1ccc(NC(=O)CC(CCO)c2nnc(CCCC(C)C)n2C2CC2)c(C)c1 (racemic)", "Reading": "11 ×10⁻⁶ cm/s"}
{"Compound": "Cc1ccc(NC(=O)CC(CCC(=O)N(C)C)c2nnc(CCCC(C)C)n2C2CC2)c(C)c1 (racemic)", "Reading": "7 ×10⁻⁶ cm/s"}
{"Compound": "Cc1ccc(NC(=O)C[C@H](CCC(=O)[O-])c2noc(-c3cnc(CC(C)C)s3)c2C2CC2)c(Cl)c1.[Na+]", "Reading": "34 ×10⁻⁶ cm/s"}
{"Compound": "Cc1ccc(NC(=O)CCc2nnc(CCCC(C)C)n2C2CC2)c(C)c1", "Reading": "36 ×10⁻⁶ cm/s"}
{"Compound": "Cc1ccc(NC(=O)C[C@H](CCC(=O)[O-])c2noc(-c3csc(CC(C)C)n3)c2C2CC2)c(Cl)c1.[Na+]", "Reading": "34 ×10⁻⁶ cm/s"}
{"Compound": "Cc1ccc(NC(=O)C[C@H](CCC(=O)[O-])c2noc(-c3cc(CC(C)C)on3)c2C2CC2)c(Cl)c1.[Na+]", "Reading": "36 ×10⁻⁶ cm/s"}
{"Compound": "CC(=O)NCCC(CC(=O)Nc1ccc(C)cc1C)c1nnc(CCCC(C)C)n1C1CC1 (racemic)", "Reading": "1.3 ×10⁻⁶ cm/s"}

----------
experiment: Stability in human liver microsomes assessed as compound remaining after 60 mins; format: ADME, Microsome; details: read-out: Stability
Below: a set of entries, each annotated with reported remaining at 1 h.

{"Compound": "Cc1ccc(NC(=O)C[C@H](CCC(=O)[O-])c2noc(-c3noc(CC(C)C)n3)c2C2CC2)c(Cl)c1.[Na+]", "remaining at 1 h [%]": 90}
{"Compound": "Cc1ccc(NC(=O)CC(CCN(C)C)c2nnc(CCCC(C)C)n2C2CC2)c(C)c1 (racemic)", "remaining at 1 h [%]": 85}
{"Compound": "CNC(=O)CCC(CC(=O)Nc1ccc(C)cc1C)c1nnc(CCCC(C)C)n1C1CC1 (racemic)", "remaining at 1 h [%]": 65}
{"Compound": "Cc1ccc(NC(=O)C[C@H](CCC(=O)[O-])c2noc(-c3cc(CC(C)C)no3)c2C2CC2)c(Cl)c1.[Na+]", "remaining at 1 h [%]": 54}
{"Compound": "Cc1ccc(NC(=O)C[C@H](CCC(=O)O)c2noc(-c3ccc(CC(C)C)cc3)c2C2CC2)c(Cl)c1", "remaining at 1 h [%]": 80}
{"Compound": "Cc1ccc(NC(=O)CC(CCC(N)=O)c2nnc(CCCC(C)C)n2C2CC2)c(C)c1 (racemic)", "remaining at 1 h [%]": 44}
{"Compound": "Cc1ccc(NC(=O)CCc2nnc(CCCC(C)C)n2C2CC2)c(C)c1", "remaining at 1 h [%]": 27}
{"Compound": "Cc1ccc(NC(=O)C[C@H](CCC(=O)[O-])c2noc(-c3csc(CC(C)C)n3)c2C2CC2)c(Cl)c1.[Na+]", "remaining at 1 h [%]": 82}
